Assay Target: UniProt P23458
Sequence (P23458 850-1154): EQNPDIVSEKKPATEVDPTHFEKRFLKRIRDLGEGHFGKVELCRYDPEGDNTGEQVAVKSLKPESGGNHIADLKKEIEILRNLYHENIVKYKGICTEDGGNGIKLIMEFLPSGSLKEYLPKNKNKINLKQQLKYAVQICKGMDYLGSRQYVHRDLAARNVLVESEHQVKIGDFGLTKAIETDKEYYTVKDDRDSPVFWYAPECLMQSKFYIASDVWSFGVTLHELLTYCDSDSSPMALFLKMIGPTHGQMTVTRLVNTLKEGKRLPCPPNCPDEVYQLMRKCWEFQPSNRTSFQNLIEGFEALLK
Assay Overview: JAK1 inhibitory activity, mobility shift assay, 1 mM ATP
Type: biochemical
Experimental Parameters: 1 mM ATP; Table 7
Measured Parameter: IC50

Form field: reported IC50 of `COc1nn(C)cc1Nc1ncc(F)c(-c2c[nH]c3c(NC(=O)[C@H]4C[C@H](F)CN4C4CCNCC4)cccc23)n1`
68 nM

Give the measured IC50 of `COc1nn(C)cc1Nc1ncc(C)c(-c2c[nH]c3c(NC(=O)[C@H]4CCCN4[C@H]4CCN(C)C4)cccc23)n1` .
67 nM

Provide IC50 for all items below, preserving their order.
1. COc1nn(C)cc1Nc1ncc(F)c(-c2c[nH]c3c(NC(=O)[C@@H]4CCCN4S(C)(=O)=O)cccc23)n1
2. COc1nn(C)cc1Nc1ncc(F)c(-c2c[nH]c3c(NC(=O)[C@H]4C[C@H](F)CN4[C@@H]4CCN(C)C4)cccc23)n1
3. COc1nn(C)cc1Nc1nccc(-c2c[nH]c3c(NC(=O)[C@H]4C[C@H](F)CN4C4CCN(C)CC4)cccc23)n1
4. COc1nn(C)cc1Nc1ncc(F)c(-c2c[nH]c3c(NC(=O)[C@H]4CCCN4C4CCNCC4)cccc23)n1
5. COc1nn(C)cc1Nc1nccc(-c2c[nH]c3c(NC(=O)[C@H]4CC(F)(F)CN4[C@@H]4CCN(C)C4)cccc23)n1

73 nM
34 nM
259 nM
55 nM
91 nM
